B1: CPEB3 Ribozyme (parent)
chain: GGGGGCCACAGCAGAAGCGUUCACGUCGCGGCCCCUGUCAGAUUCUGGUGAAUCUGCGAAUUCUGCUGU

- Variants of: B1
- experiment summary: self-cleavage, relative activity (ratio to wild type); higher = more cleavage; co-transcriptional
property name: self-cleavage
Form: value (number only, do not type unit).

-- ask Reported self-cleavage, variant G37A U67A : ____
-- reply 0.389

-- ask What does the data say about its self-cleavage? Entry: G1A C29G
-- reply 0.0465

-- ask # query: self-cleavage of entry C12A C18G
-- reply 0.113

-- ask For the variant G47A C66U , what self-cleavage is on record?
-- reply 0.959

-- ask Look up self-cleavage for this variant: A13G A15C
-- reply 0.196

-- ask Entry G25U G41A has what self-cleavage?
-- reply 0.112

-- ask # get_value(readout='self-cleavage', item= A23C A40G )
-- reply 0.92

-- ask Would you kindly share the measured self-cleavage for C34G C35U ?
-- reply 0.29

-- ask Look up self-cleavage: G17U A40U
-- reply 0.149

-- ask For G30U A59C , what is its reported self-cleavage?
-- reply 0.172

-- ask Please give the measured self-cleavage for this variant: U44C G58A
-- reply 0.981

-- ask Any idea what self-cleavage was measured for A52G G58U ?
-- reply 1
